Here we list compounds with their recorded IC50 when tested on human cathepsin F (Homo sapiens, UniProt Q9UBX1).
Sequence (Q9UBX1 271-484): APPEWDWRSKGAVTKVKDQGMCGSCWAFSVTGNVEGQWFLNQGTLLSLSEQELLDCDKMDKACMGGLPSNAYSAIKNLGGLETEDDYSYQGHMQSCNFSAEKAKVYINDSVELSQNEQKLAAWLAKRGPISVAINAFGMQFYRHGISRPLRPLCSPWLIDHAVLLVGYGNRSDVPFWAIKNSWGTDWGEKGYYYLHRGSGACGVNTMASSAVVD
Answer format: numeric, nM implied, no suffix.

# smi, target desc, quantity unit, IC50
measured = [
    ("N#CC1(NC(=O)[C@@H]2CCCC[C@H]2c2oc(-c3ccc(F)cc3Cl)nc2-c2ccc(N3CCS(=O)(=O)CC3)cc2)CC1", "human cathepsin F (Homo sapiens, UniProt Q9UBX1)", "nM", 353),
]

Now for the compound whose IC50 we want.
Provide measured IC50 on human cathepsin F (Homo sapiens, UniProt Q9UBX1) for Cc1nc(-c2ccc(N3CCS(=O)(=O)CC3)cc2)c([C@@H]2CCC(F)(F)C[C@H]2C(=O)NC2(C#N)CC2)s1 please.
389
